System: SK-MEL-5 melanoma
Method: NCI tumour cell line growth inhibition, 48 h
Entries annotated with measured TGI

Compound | TGI
N#CC(C#N)=CNC(N)=S | > 100 µM
CC(=O)/C(=C\c1cccc([N+](=O)[O-])c1)C(=O)Nc1ccccc1C | > 100 µM
O=C(/C=C/c1ccc(Cl)cc1)c1ccc(Nc2ccnc3cc(Cl)ccc23)cc1 | > 53.8 µM
CCOP(=O)(OCC)C(c1ccc(F)cc1)N(C(=O)NC(F)(F)F)c1ccc(OC)cc1 (centres undefined) | > 100 µM

###

Tested on: OVCAR-5 ovarian
Method: NCI tumour cell line growth inhibition, 48 h
Entries annotated with measured TGI

Compound | TGI
CN(C)c1ccc(C(=N/N=C2\C(=O)Nc3ccccc32)c2ccc(N(C)C)cc2)cc1 | > 54 µM
Cc1ccccc1S(=O)(=O)OC1NS(=O)(=O)c2ccccc21 (centres undefined) | > 100 µM
NC1=NCC(CN2CCOCC2)O1 (centres undefined) | > 100 µM
COc1cc(C2c3cc4c(cc3OC(C)(O)C2C)OCO4)cc(OC)c1OC (centres undefined) | > 100 µM

###

Tested on: U251 CNS
Method: NCI tumour cell line growth inhibition, 48 h
Recorded endpoint: log10(TGI) (log10 of the value in µM)

Compound | Recorded endpoint | Observed result
CCOC(=O)C(=C=C=C(c1ccccc1)c1ccccc1)C(=O)OCC | log10(TGI) | 1.52
C=C1C(=O)O[C@H]2[C@H]1CC/C(COC(=O)c1c[nH]c3ccccc13)=C\CC[C@@]1(C)O[C@@H]21 | log10(TGI) | 0.29
COC1=CC(=O)C(C2CC(=O)c3c(O)cc(O)cc3O2)=CC1=O (configuration not stated) | log10(TGI) | 1.57
Cn1cnc([N+](=O)[O-])c1S(=O)(=O)Oc1cccc2ccccc12 | log10(TGI) | 1.54
OCCc1ccsc1-c1sc(-c2cc(CCO)c(-c3sccc3CCO)s2)cc1CCO | log10(TGI) | 1.69
CC1=NN(c2cccc(Cl)c2)C2(SCC(=O)N2c2nc3ccccc3s2)/C1=C\c1ccccc1O (configuration not stated) | log10(TGI) | 1.73
OCC#Cc1ccccc1C#Cc1ccccc1 | log10(TGI) | 1.40
CC(=O)OC1COC(n2ccc3cc(Br)c([N+](=O)[O-])cc32)C(OC(C)=O)C1OC(C)=O (configuration not stated) | log10(TGI) | 1.75
C[C@@H]1CCC2[C@@H](C)[C@@H](OCC(CO[C@H]3OC4O[C@@]5(C)CC[C@H]6[C@H](C)CCC([C@H]3C)[C@@]46OO5)OC(=O)CCC(=O)O)OC3O[C@@]4(C)CC[C@@H]1[C@]32OO4 (some centres not stated) | log10(TGI) | 1.39

###

Tested on: HOP-92 NSCLC
Method: NCI tumour cell line growth inhibition, 48 h
Recorded endpoint: GI50

Compound | Target or system | Observed result
Cc1cc(-c2ccc3nc(C4CCOCC4)n(CCOC(F)(F)F)c3c2)cn(C)c1=O | HOP-92 NSCLC | 182 nM
O=C1c2cc3c(cc2-c2c1c1ccc(F)cc1c(=O)n2CCCNCCO)OCO3 | HOP-92 NSCLC | 198 nM
O=C1OC(O)[C@@H]2[C@H]1[C@H]1CC[C@@H]2O1 (some centres undefined) | HOP-92 NSCLC | 20300 nM
CN(C(=O)c1ccc(C(F)(F)F)cc1)c1ccc(Oc2ccc3c(c2)cc(C(=O)N2CCN(Cc4ccc(OC(F)F)cc4)CC2)n3C)nc1 | HOP-92 NSCLC | 3020 nM
COc1cc2c3c(n(C)c(=O)c2cc1OC)-c1cc2c(cc1/C3=C\CCCN)OCO2 | HOP-92 NSCLC | 696 nM
CN1CCN(CCCn2c(=O)c3sc4ncccc4c3n3nnc(-c4ccccc4)c23)CC1 | HOP-92 NSCLC | 5800 nM
CO[C@H]1/C=C(/C)CCC[C@H](C)[C@H](O)[C@@H](C)C(=O)C(C)(C)[C@@H](O)CC(=O)O[C@@H]1/C(C)=C/c1csc(C)n1 | HOP-92 NSCLC | 38 nM
Cc1cc2c(cc1Cl)SC(N(N(C)C)S(=O)(=O)c1ccc(Cl)cc1)=NS2(=O)=O | HOP-92 NSCLC | 14800 nM
O=C(CCc1nnc2sc(-c3ccc(Cl)cc3Cl)nn12)c1nc2ncccc2[nH]1 | HOP-92 NSCLC | 1190 nM
